koff: recorded values
Molecular target: T1, recombinant human RON SEMA and PSI domains (human, UniProt Q04912 25-571)
T1 construct: domain: SEMA+PSI; Commercial protein (R&D Systems); also called rhRON SEMA+PSI; hRON SEMA+PSI
Assay: SPR, purified Ab captured on anti-human IgG Fc, 37 C
measured metric: koff (s⁻¹)

* Sh07F01-83 (antibody, human IgG1, kappa, V domains shown, Humanized, human IgG1/kappa: Sh07F01 Hv3-48 D28T T60A L63V E65G IgG1 + Sh07F01 Kv1-9 F1 Kappa) VH: EVQLVESGGGLVQPGGSLRLSCAASGFTFSRHWMSWVRQAPGKGLEWVSEINPDSRTINYAPSVKGRFTISRDNAKNSLYLQMNSLRAEDTAVYYCARRVRIHYYGAMDSWGQGTTVTVSS VL: DIQLTQSPSFLSASVGDRVTITCRASQNVGSSLVWYQQKPGKAPKTLIYSASFLYSGVPSRFSGSGSGTEFTLTISSLQPEDFATYYCQQYNNYPLTFGGGTKVEIKR | 0.00079
* Sh07F01-2 (antibody, human IgG1, kappa, V domains shown, also called Chimeric 07F01 C102S) VH: EVKLLESGGGLVQPGGSLKLSCAASGFDFSRHWMSWVRLAPGKGLEWIAEINPDSRTINYTPSLKEKFIISRDNAKNSLFLQMNRVRSEDTALYYCARRVRIHYYGAMDSWGQGTSVTVSS VL: DIVLTQSQKIVSTSVGARVSVTCKASQNVGSSLVWYQQKPGQSPKTLIYSASFRYSGVPDRFTGSGSGTDFTLTISNVQSEDLADYFCQQYNNYPLTFGAGTKLELKR | 0.00053
